Hello, the source for this data is ChEMBL document CHEMBL1140211, in case you need it.

Consider the following molecules and their measured pIC50 readings.
# methodNotes: Inhibition of cytochrome bc1 complex in bovine heart mitochondria by NADH oxidase assay
# Design: species or system Bos taurus
pIC50: −log10 of the molar value.
parameterMeasured: pIC50

# molecule, value
records = [
    ("CO/C=C(/C(=O)OC)c1ccccc1Oc1cc(Oc2ccccc2C#N)ncn1 [AZOXYSTROBIN]", 6.92),
    ("C/C=C(C)/C=C/C=C/[C@H](OC)[C@@H](C)[C@@H](OC)[C@@H](C)CCc1oc2c(O)c(OC)cc(OC)c2c(=O)c1C [STIGMATELLIN]", 7.09),
    ("CCOc1ccc(Cc2ccc(C(=O)N/C=C\\CCCC(=O)NCC(=O)OC)cc2)cc1", 8.05),
]

###

# methodNotes: Inhibition of cytochrome bc1 complex in bovine heart mitochondria by NADH oxidase assay
# Set-up: species or system Bos taurus
pIC50: −log10 of the molar value.
Would you please tag the item label 1 when its pIC50 is 7 or above, and label 0 when it is below?

# itemSmiles, assignedCategory
rows = [
    ("COC(=O)CNC(=O)CCC/C=C\\NC(=O)c1ccc(Cc2ccc(I)cc2)cc1", "label 1"),
    ("CCCCCCOc1ccc(C(=O)N/C=C\\CCCC(=O)NCC(=O)OC)cc1", "label 1"),
    ("CCc1ccc(Oc2ccc(C(=O)NCCOCC(=O)NCC(=O)OC)cc2)cc1", "label 0"),
    ("CCc1ccc(Oc2ccc(C(=O)NCCCCC(=O)NCC(=O)OC)cc2)cc1", "label 0"),
]

###

Consider the following molecules and their measured Activity readings.
# Test system: Blumeria graminis f. sp. tritici
# methodNotes: Inhibition of Blumeria graminis f. sp. Tritici cytochrome bc1 complex inoculated in wheat plant assessed as lowest drug concentration required to control 100% disease applied to leaf 1 hr prior inoculation measured after 6 to 9 days

# itemSmiles, Activity
rows = [
    ("CO/C=C(/C(=O)OC)c1ccccc1Oc1cc(Oc2ccccc2C#N)ncn1", "< 1.8 µM"),
    ("C/C=C(C)/C=C/C=C/[C@H](OC)[C@@H](C)[C@@H](OC)[C@@H](C)CCc1oc2c(O)c(OC)cc(OC)c2c(=O)c1C", "> 180 µM"),
    ("COC(=O)CNC(=O)CCC/C=C\\NC(=O)/C=C(C)/C=C/[C@H](C)[C@H](OC)[C@H](C)[C@H](/C=C/c1ccccc1)OC", "> 180 µM"),
    ("COC(=O)CNC(=O)/C=C\\C/C=C\\NC(=O)/C=C(C)/C=C/[C@H](C)[C@H](OC)[C@H](C)[C@H](/C=C/c1ccccc1)OC", "> 180 µM"),
]

###

Consider the following compounds and their measured Activity readings.
# System: Mycosphaerella graminicola
# methodNotes: Inhibition of Mycosphaerella graminicola cytochrome bc1 complex inoculated in wheat plant assessed as lowest drug concentration required to control 100% disease applied to leaf 1 hr prior inoculation measured after 6 to 9 days

# compound, Activity
rows = [
    ("COC(=O)CNC(=O)/C=C\\C/C=C\\NC(=O)/C=C(C)/C=C/[C@H](C)[C@H](OC)[C@H](C)[C@H](/C=C/c1ccccc1)OC [CROCACIN A]", "> 180 µM"),
    ("CO/C=C(/C(=O)OC)c1ccccc1Oc1cc(Oc2ccccc2C#N)ncn1 [AZOXYSTROBIN]", "< 1.8 µM"),
    ("C/C=C(C)/C=C/C=C/[C@H](OC)[C@@H](C)[C@@H](OC)[C@@H](C)CCc1oc2c(O)c(OC)cc(OC)c2c(=O)c1C [STIGMATELLIN]", "> 180 µM"),
    ("COC(=O)CNC(=O)CCC/C=C\\NC(=O)/C=C(C)/C=C/[C@H](C)[C@H](OC)[C@H](C)[C@H](/C=C/c1ccccc1)OC [CROCACIN D]", "45 µM"),
]
